# TGI listing for each entry below
Test system: MDA-MB-435
Protocol description: NCI tumour cell line growth inhibition, 48 h
Reported endpoint: TGI

>>> print(df.to_string())
                                   compound  result_value
0  Cc1ccc2c(C(C[N+](=O)[O-])c3ccccc3)c(-c3ccccc3)[nH]c2c1 (stereo unspecified)       29.2 µM
1  CC(NC1=NCCO1)c1ccccc1Cl (stereo unspecified)      > 100 µM
2  COc1ccccc1C#Cc1ccccc1C#Cc1ccc(OCCCCCCOc2ccccc2C#Cc2ccccc2C#Cc2ccccc2OC)cc1      > 100 µM
3  C=CCC1(C(=O)OC)CCC/C(=N\O)C1 (stereo unspecified)       > 10 µM
4  CC1CCN(C(C)C)P(=S)(Cc2ccccc2)O1 (stereo unspecified)      > 100 µM
5  CCOC(=O)C12CCC(=O)N1N(C)c1ncccc1N2 (stereo unspecified)      > 100 µM

----------
# TGI listing for each entry below
Tested on: OVCAR-8 ovarian
Protocol description: NCI tumour cell line growth inhibition, 48 h
Reported endpoint: TGI (µM)

>>> df
                                   compound  system_under_test  reported_relation  result_value
0  C#C[C@]1(O)CC[C@H]2[C@@H]3CCC4=C/C(=N\OCCN5CCCCC5)CC[C@]4(C)[C@H]3CC[C@@]21C    OVCAR-8 ovarian                  =          21.2
1  COC(=O)/C=C1/SC(=Nc2cccc(Cl)c2)N(CCc2c[nH]c3ccc(O)cc23)C1=O    OVCAR-8 ovarian                  =          6.72
2      COc1cc2nc(Nc3cccc(Cl)c3)nc(N)c2cc1OC    OVCAR-8 ovarian                  =          22.6
3  COc1ccc(C2CC(c3c(O)ccc4ccccc34)=NN2)cc1OC (stereo not given)    OVCAR-8 ovarian                  =          17.8
4  COc1ccc(/C=C/c2cc(OC)c(OC(C)=O)c(OC)c2)cc1    OVCAR-8 ovarian                  >           100

----------
# TGI listing for each entry below
Test system: OVCAR-3 ovarian
Protocol description: NCI tumour cell line growth inhibition, 48 h

Compound	TGI
COc1ccccc1C#Cc1ccccc1C#Cc1ccc(OCCCCCCOc2ccccc2C#Cc2ccccc2C#Cc2ccccc2OC)cc1	> 100 µM
COc1ccc(Nc2nc(NCCNc3ccnc4cc(Cl)ccc34)nc(N3CCOCC3)n2)cc1	24.3 µM
CN(C)CCNc1ccc2ncn3c4ccc(O)cc4c(=O)c1c23	13.4 µM
COc1cc(-n2ccnc2-c2ccc3ccccc3c2)cc(OC)c1OC	19.4 µM
COc1ccc(C2CC(c3c(O)ccc4ccccc34)=NN2)cc1OC (stereo unspecified)	20.6 µM
CC(C)(C)c1ccc2c(c1)OP1(Oc3c(Cl)cc(Cl)c4cccnc34)(O2)Oc2ccc(C(C)(C)C)cc2O1	13.3 µM
O=[N+]([O-])c1ccc(-c2csc(N=Nc3c(O)[nH]c4ccccc34)n2)cc1	> 100 µM
O=c1onc2n1-c1ccc(Cl)cc1C(=S)N1CSCC21 (stereo unspecified)	> 100 µM
COC(=O)Nc1nc2ccc(NS(=O)(=O)c3cccs3)cc2[nH]1	49.2 µM
CSc1ccc(C2=NN(C(C)=O)C(c3ccc(-c4cc(Cl)c(Cl)cc4Cl)o3)C2)cc1 (stereo unspecified)	37.8 µM
Cc1nc(OCc2ccccc2)c2ncn(CCO)c2n1	> 100 µM
O=[N+]([O-])c1ncc(N(CCO)CCO)s1	> 100 µM
O=C1Nc2c(Cl)cc(Cl)cc2/C1=N/N=C/c1ccco1	95.1 µM
CC1(C)Oc2ccc3ccc(=O)oc3c2C(O)C1O (stereo unspecified)	> 100 µM
CC(NC1=NCCO1)c1ccccc1Cl (stereo unspecified)	> 100 µM
CC(C)(C)OC(=O)NCC(CNC(=O)OC(C)(C)C)C(N)=O	> 100 µM
[N-]=[N+]=NCN1C(=O)C2C3C=CC(C2C1=O)C1C2C(=O)N(CN=[N+]=[N-])C(=O)C2C31 (stereo unspecified)	> 100 µM
CCOC(=O)c1[nH]c2cc(Cl)ccc2c1[C@@H](C(=O)NC(C)(C)C)N(CC)C(=O)CCCCC#Cc1cccc2c1CN(C1CCC(=O)NC1=O)C2=O (stereo partly specified)	> 38.9 µM
O=S1(=O)c2ccccc2N(O)C2=NCCN21	> 100 µM
O=c1[nH]c(NCc2cccnc2)nc2nc[nH]c12	> 100 µM
COC[C@H](NC(=O)c1cnc(C)s1)C(=O)N[C@@H](COC)C(=O)N[C@@H](Cc1ccccc1)C(=O)[C@@]1(C)CO1	> 86.3 µM
CCOC(=O)C(=Cc1ccc(C#N)cc1)C(=O)OCC	4.39 µM
CCCCN(CC)C(=O)C(=O)Cc1nc2ccc(C(=O)c3ccccc3)cc2[nH]c1=O	> 100 µM
COc1ccc2c(c1)c(-c1nc(-c3cn(C)c4ccncc34)cs1)cn2C	3.77 µM
O=C(Nc1ccccc1)N(CCN(Cc1ccccc1)C(=O)Nc1ccccc1)CCN(Nc1ccccc1)C(=O)Nc1ccccc1	> 100 µM
COC(=O)C1CCC(=O)N1C(c1ccc(OC)cc1)c1cc(OC)c(OC)c(OC)c1 (stereo unspecified)	0.597 µM
Nc1nc(=O)n(C2CCC(CO)O2)cc1F (stereo unspecified)	> 100 µM
Oc1ccccc1-c1nn(CNc2ccc(Cl)cc2)c(=S)o1	> 100 µM
CC(C)(C)C1=C(Br)C(F)(C(C)(C)C)OP1(=O)c1ccccc1 (stereo unspecified)	28.8 µM
COc1ccc(-c2ncnc3c2ncn3CC#CCCl)cc1	5.75 µM
O=C(Cc1ccc2ccccc2c1)NCc1ccc(C(=O)NCCc2ccccc2)cc1	> 100 µM
COc1ccc(/C=N\N(C)Cc2cccc3ccsc23)cc1	> 100 µM
O=P1(c2ccccc2)C(c2ccccc2)CCC1c1ccccc1 (stereo unspecified)	> 100 µM
CC(C)(C)C(=O)N1C(C(=O)O)Cc2ccccc2[C@@H]1Cc1ccccc1 (stereo partly specified)	> 100 µM
FC1(F)ON2CCc3ccccc3C2[C@H]1c1ccccc1 (stereo partly specified)	> 100 µM
NC(=O)c1cc(N2CC2)c([N+](=O)[O-])cc1[N+](=O)[O-]	> 200 µM
